Molecular target: T1, 4H717-bN
T1 chain: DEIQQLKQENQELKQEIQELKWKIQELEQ
Experiment: two-hybrid library CCNG1;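 also: natural log of median RNA to DNA barcode read ratio; higher means stronger binding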
assay.metric: interaction score

{"columns": ["binder", "recorded.value"],
 "data": [
  ["DEIQQLKQEIQELKQENQELKWKNQELEQ [4H607-bN]", -1.11],
  ["DEIQQLEQKNQELKQEIQELEWKIQELKQ [4H454-bN]", 0.0875],
  ["DKIQQLKQEIQELKQKIQELKWENQELEQ [4H2667-bN]", -0.215],
  ["DKNQQLEQKIQELKQKIQELEWENQELEQ [4H3427-bN]", -0.704],
  ["DKIQQLEQKNQELEQEIQELKWEIQELKQ [4H2442-bN]", -1.28],
  ["DKNQQLKQKIQELEQEIQELKWKNQELEQ [4H3855-bN]", -0.464],
  ["DEIQQLEQKIQELKQEIQELKWENQELEQ [4H331-bN]", -0.661],
  ["DKIQQLKQENQELEQKIQELKWEIQELEQ [4H2729-bN]", -1.59],
  ["DKIQQLKQEIQELEQEIQELKWKNQELKQ [4H2576-bN]", -0.909],
  ["DKNQQLEQEIQELKQKNQELEWEIQELEQ [4H3185-bN]", -0.903],
  ["DKNQQLEQKIQELEQENQELKWEIQELKQ [4H3354-bN]", -0.894],
  ["DENQQLKQKIQELEQKNQELEWKIQELEQ [4H1845-bN]", -0.951],
  ["DKNQQLEQEIQELEQKIQELEWKNQELKQ [4H3112-bN]", -1.88],
  ["DEIQQLKQENQELEQKIQELKWKNQELEQ [4H687-bN]", 0.114]
]}
